- experiment: chemical genetic growth profiling, strain panel (AID 1159580);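 note: tested at 20 µM; growth read once vehicle control cultures reached saturation at 30 °C; 1 = growth at the plate median or of vehicle wells; lower values mean less growth of the strain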
- condition: S. cerevisiae deletion strains, growth OD, locus YBR009C, strain hhf1, hits give low values
Screen size: about 5,500 compounds; about 2,000 (36%) were called active. Inconclusive results (about 18%) are left out. Some of the results follow.
measurement.kind: normalized growth
The answer should be written as a number, with no unit following it.

Field: example entries. Status: answers known.
O=C(O)C1(O)C[C@@H](O)C(O)[C@H](O)C1 (some centres undefined): 1
COc1ccc2c(c1OC)C(=O)O[C@@H]2[C@H]1c2cc3c(cc2CCN1C)OCO3: 0.984
CN1CCC(=C2c3ccccc3CCc3sccc32)CC1: 0.986
CCOC(=O)CCC(=O)O[C@H]1[C@H](O[C@@H]2[C@@H](C)[C@H](O[C@H]3C[C@@](C)(OC)[C@@H](O)[C@H](C)O3)[C@@H](C)C(=O)O[C@H](CC)[C@@](C)(O)[C@H](O)[C@@H](C)C(=O)[C@H](C)C[C@@]2(C)O)O[C@H](C)C[C@@H]1N(C)C: 0.993
COc1ccc2c3c1O[C@H]1C[C@@H](O)C=C[C@@]31CCN(C)C2: 1.01

Lab note: COc1cc2c(cc1OC)[C@@H]1C(=O)c3ccc4oc(C(C)C)cc4c3O[C@@H]1CO2 gave normalized growth of 0.992

Lab note: CC(C(=O)O)c1cccc(C(=O)c2ccccc2)c1 (centres undefined) gave normalized growth of 0.979

Lab note: COc1ccc(OC)c(C(O)C(C)N)c1 (centres undefined) gave normalized growth of 1.01

Lab note: CCOC(=O)C(Cc1ccc(O)cc1)NC(C)=O (centres undefined) gave normalized growth of 0.974

----------
- experiment: chemical genetic growth profiling, strain panel (AID 1159580);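 note: tested at 20 µM; growth read once vehicle control cultures reached saturation at 30 °C; 1 = growth at the plate median or of vehicle wells; lower values mean less growth of the strain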
- condition: S. cerevisiae deletion strains, growth OD, locus YKL068W, hits give low values
The campaign covered roughly 5,500 compounds. About 2,000 (36%) were called active. Not shown: some 18% with an inconclusive outcome. This is one part of the list.
In this section we review reported normalized growth values for a set of molecules.
The answer should be written as a number, with no unit following it.

Lab note: CC(=O)C1CCC2C3CC(=O)C4=CC(=O)CCC4(C)C3CCC12C (stereo unspecified) gave normalized growth of 0.982

Lab note: COc1ccc2c(c1OC)C(=O)O[C@H]2[C@H]1c2cc3c(cc2CCN1C)OCO3 gave normalized growth of 1

Lab note: C=C1C([C@]2(C)C(CC(=O)OC)[C@@](C)(COC(C)=O)OC(=O)C[C@@H]2OC(C)=O)[C@@H](OC=O)[C@H](OC(=O)C(O)C(C)CC)[C@@]2(C)[C@H](c3ccoc3)CC(=O)C12O (stereo partly specified) gave normalized growth of 1.01

Lab note: Cc1c(O)c(C(=O)CC(C)C)c2oc3c(C(=O)CC(C)C)c(O)c(C)c(O)c3c2c1O gave normalized growth of 1

Lab note: CCC(C)C(OC(C)=O)C(=O)OC1C(O)C2C3(C)C=CC(=O)C(C)(C)C3CC(OC(=O)C(O)C(C)C)C2(C)C23OC2CC(c2ccoc2)C13C (stereo unspecified) gave normalized growth of 1

Lab note: ClC1=C(Cl)C2(Cl)C3C(Cl)C=CC3C1(Cl)C2(Cl)Cl (stereo unspecified) gave normalized growth of 1
